assay: Lipophilicity, log D of the compound at pH 7 at 100 uM by HPLC method; format: physicochemical; details: buffer
measureName: logD at 100 µM
A bare number is all that is needed in reply.

Worked examples, 3 molecules total:
molecule: COc1cc(-c2ccc(C3CCc4ccc([C@H](C5CC5)[C@H](C)C(=O)[O-])cc4O3)c(F)c2)c(F)cn1.[Na+] (stereo in doubt; 26)
reported: 2.97
--
molecule: COc1cc(-c2ccc(C3CCc4ccc([C@H](C5CC5)[C@H](C)C(=O)[O-])cc4O3)nc2)c(F)cn1.[Na+] (stereo in doubt; 28)
reported: 1.98
--
molecule: COc1cc(-c2ccc([C@@H]3CCc4ccc([C@H](C5CC5)[C@H](C)C(=O)[O-])cc4O3)c(F)c2)ccn1.[Na+]
reported: 2.51

Reported logD at 100 µM ( COc1cc(-c2ccc(C3CCc4ccc([C@H](C5CC5)[C@H](C)C(=O)[O-])cc4O3)cc2)ccn1.[Na+] (stereo in doubt; 22) ) = 2.3

---

assay: Intrinsic clearance in rhesus monkey hepatocytes; type: ADME, cell-based, Macaca mulatta, Hepatocyte; conditions: read-out: CLH
measureName: CLint scaled
Please give the number followed by its unit.

Reported CLint scaled ( "COc1cc(-c2ccc([C@@H]3CCc4ccc([C@H](C5CC5)[C@H](C)C(=O)[O-])cc4O3)c(F)c2)ccn1.[Na+]" ) = 102 mL/min/kg

---

max activation: recorded values
molecular target: Free fatty acid receptor 1 (Homo sapiens); assay: Agonist activity at recombinant human GPR40 expressed in HEK293 cells assessed as increase in IP1 accumulation measured after 60 mins in presence of 100% human serum by HTRF assay relative to AM-1638; format: functional, cell-based

Worked examples, 3 compounds total:
compound: COc1cc(-c2ccc(C3CCc4ccc([C@H](C5CC5)[C@H](C)C(=O)O)cc4O3)c(F)c2)c(F)cn1 (stereo in doubt; 27)
max activation: > 179%

compound: COc1cc(-c2cnc(C3CCc4ccc([C@H](C5CC5)[C@H](C)C(=O)O)cc4O3)c(F)c2)c(F)cn1 (stereo in doubt; 30)
max activation: > 179%

compound: COc1cc(-c2ccc(C3CCc4ccc([C@H](C5CC5)[C@H](C)C(=O)O)cc4O3)c(F)c2)c(F)cn1 (stereo in doubt; 26)
max activation: > 179%

Reported max activation ( COc1ccc(F)c(-c2ccc(C3CCc4ccc([C@@H](CC(=O)O)C5CC5)cc4O3)cc2)c1 (mixture of isomers) ) = 188%

Reported max activation ( COc1ccc(F)c(-c2ccc(C3CCc4ccc([C@H](C5CC5)[C@H](C)C(=O)O)cc4O3)nc2)c1 (stereo in doubt; 16) ) = > 179%

Reported max activation ( "COc1cc(-c2ccc([C@@H]3CCc4ccc([C@H](C5CC5)[C@H](C)C(=O)[O-])cc4O3)c(F)c2)ccn1.[Na+]" ) = > 179%

---

max activation: recorded values
target: Free fatty acid receptor 1 (Homo sapiens, UniProt O14842); test: Agonist activity at recombinant human GPR40 expressed in HEK293 cells assessed as increase in IP1 accumulation measured after 60 mins by HTRF assay relative to AM-1638; type: functional, cell-based
Sequence (O14842 whole entry): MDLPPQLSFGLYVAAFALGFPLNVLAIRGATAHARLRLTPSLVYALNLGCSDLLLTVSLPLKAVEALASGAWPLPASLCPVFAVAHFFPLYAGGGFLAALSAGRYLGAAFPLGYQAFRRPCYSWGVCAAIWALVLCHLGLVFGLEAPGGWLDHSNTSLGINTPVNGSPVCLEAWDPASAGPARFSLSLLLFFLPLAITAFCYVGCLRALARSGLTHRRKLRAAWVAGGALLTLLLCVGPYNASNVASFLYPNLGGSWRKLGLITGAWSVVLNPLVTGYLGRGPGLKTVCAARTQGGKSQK

Worked examples, 6 compounds total:
compound: COc1cc(-c2ccc(C3CCc4ccc([C@H](C5CC5)[C@H](C)C(=O)O)cc4O3)nc2)c(F)cn1 (stereo in doubt; 29)
max activation: > 179%

compound: O=C(O)C[C@H](c1ccc2c(c1)OC(c1ccc(-c3cccc(O)c3)cc1)CC2)C1CC1 (mixture of isomers)
max activation: 422%

compound: COc1ccc(F)c(-c2ccc(C3CCc4ccc([C@H](C5CC5)[C@H](C)C(=O)O)cc4O3)nc2)c1 (stereo in doubt; 16)
max activation: > 179%

compound: COc1ccc(F)c(-c2ccc(C3CCc4ccc([C@@H](CC(=O)O)C5CC5)cc4O3)cc2)c1 (mixture of isomers)
max activation: 359%

compound: COc1cc(-c2ccc([C@@H]3CCc4ccc([C@H](C5CC5)[C@H](C)C(=O)[O-])cc4O3)c(F)c2)ccn1.[Na+]
max activation: > 179%

compound: COc1ccc(F)c(-c2ccc(C3CCc4ccc([C@H](C5CC5)[C@H](C)C(=O)O)cc4O3)cc2)c1 (stereo in doubt; 14)
max activation: > 179%

Reported max activation ( COc1ccc(F)c(-c2ccc(C3CCc4ccc([C@H](C5CC5)[C@H](C)C(=O)O)cc4O3)nc2)c1 (stereo in doubt; 17) ) = > 179%

Reported max activation ( COc1ccc(F)c(-c2ccc(C3CCc4ccc([C@H](C5CC5)[C@H](C)C(=O)O)cc4O3)cc2)c1 (stereo in doubt; 15) ) = > 179%

Reported max activation ( COc1cc(-c2ccc(C3CCc4ccc([C@H](C5CC5)[C@H](C)C(=O)O)cc4O3)c(F)c2)c(F)cn1 (stereo in doubt; 27) ) = > 179%

Reported max activation ( COc1cc(-c2ccc(C3CCc4ccc([C@H](C5CC5)[C@H](C)C(=O)O)cc4O3)cc2)c(F)cn1 (stereo in doubt; 21) ) = > 179%

Reported max activation ( COc1cc(-c2ccc(C3CCc4ccc([C@H](C5CC5)[C@H](C)C(=O)O)cc4O3)nc2)ccn1 (stereo in doubt; 32) ) = > 179%
